All figures here come from ChEMBL document CHEMBL1141591.

Examples of molecules with documented Activity follow.
measured-target: P2Y purinoceptor 6 (Homo sapiens)
Sequence (Q15077 whole entry): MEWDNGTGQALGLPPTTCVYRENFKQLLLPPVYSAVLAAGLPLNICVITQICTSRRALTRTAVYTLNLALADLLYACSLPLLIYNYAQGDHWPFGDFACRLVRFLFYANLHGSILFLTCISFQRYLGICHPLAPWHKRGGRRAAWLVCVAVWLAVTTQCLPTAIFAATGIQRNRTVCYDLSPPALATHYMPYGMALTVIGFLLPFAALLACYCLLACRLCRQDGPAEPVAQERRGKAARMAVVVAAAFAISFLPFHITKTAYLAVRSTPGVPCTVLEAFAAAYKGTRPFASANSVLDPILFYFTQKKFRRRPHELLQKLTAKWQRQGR
test-summary: Agonist activity at P2Y6 receptor expressed in human 1321 cells at 100 uM by calcium mobilization assay
Format: functional, cell-based

molecule	Activity
O=c1ccn([C@@H]2O[C@H](COP(=O)(O)OP(=O)(O)OP(=O)(O)OP(=O)(O)OC[C@@H]3O[C@H](n4ccc(=O)[nH]c4=O)[C@H]4OC(/C=C/c5ccccc5)O[C@H]43)[C@H]3OC(/C=C/c4ccccc4)O[C@H]32)c(=O)[nH]1 (stereo in doubt; 25)	> 5%

Inquiry: Please list Activity recorded for the molecule O=c1ccn([C@@H]2O[C@H](COP(=O)(O)OP(=O)(O)OP(=O)(O)OP(=O)(O)OC[C@@H]3O[C@H](n4ccc(=O)[nH]c4=O)[C@H]4OC(Cc5ccccc5)O[C@H]43)[C@H]3OC(Cc4ccccc4)O[C@H]32)c(=O)[nH]1 (stereo partly drawn)
Reply text: > 5%
